FYI, the data here is from patent US20240207286A1.

Quick list: Papp B→A per entry.
Procedure Summary: Caco-2 permeability
Type: in vitro ADME
Assay Conditions: human, B2A
Quantity Name: Papp B→A (×10⁻⁶ cm/s)

In [3]: df
Out[3]:
                                   compound  readout_value
0  CCCCC1(CCCC)CN(c2ccccc2)c2cc(SC)c(OCCC(=O)O)cc2S(=O)(=O)N1            0.9
1  CCCCC1(CC)CN(c2ccc(F)cc2)c2cc(SC)c(OCC(=O)O)cc2S(=O)(=O)C1 (stereo not drawn)           12.9
2  CCCCC1(C)CN(c2ccccc2)c2cc(SC)c(CSCC(=O)O)cc2S(=O)(=O)C1 (stereo not drawn)           25.3

* * *

Procedure Summary: Bioavailability in mice
Assay Conditions: C57BL/6, mouse, in vivo
Quantity Name: bioavailability (%)

>>> print(df.to_string())
                                   molecule  readout_value
0  CCCCC1(CC)CN(c2ccccc2)c2cc(SC)c(O/C=C(\F)C(=O)O)cc2S(=O)(=O)C1 (stereo not shown)             44

* * *

Target Of Assay: hIBAT (Homo sapiens)
Sequence (Q12908 whole entry): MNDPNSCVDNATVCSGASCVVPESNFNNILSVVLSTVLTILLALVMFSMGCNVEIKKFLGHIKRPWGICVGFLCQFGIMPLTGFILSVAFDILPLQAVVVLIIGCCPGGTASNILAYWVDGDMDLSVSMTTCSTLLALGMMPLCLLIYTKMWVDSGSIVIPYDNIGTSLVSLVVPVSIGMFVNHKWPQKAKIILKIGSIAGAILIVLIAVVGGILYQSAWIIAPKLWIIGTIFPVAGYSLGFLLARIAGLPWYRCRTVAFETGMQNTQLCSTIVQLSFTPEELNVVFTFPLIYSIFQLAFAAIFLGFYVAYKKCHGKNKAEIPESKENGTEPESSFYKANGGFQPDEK
Procedure Summary: hIBAT potency (IC50)
Quick list: IC50 per entry.
Quantity Name: IC50

                                   compound  quantity_name  readout_value
0  CCCCC1(CC)CN(c2ccc(F)cc2)c2cc(SC)c(OCC(=O)O)cc2S(=O)(=O)C1 (centres unmarked)           IC50         2.4 nM
1  CCCCC1(CC)CN(c2ccccc2)c2cc(SC)c(O/C=C(\F)C(=O)O)cc2S(=O)(=O)C1 (centres unmarked)           IC50          21 nM

* * *

Procedure Summary: Caco-2 permeability
Assay type: in vitro ADME
Assay Conditions: human, A2B
Quantity Name: Papp A→B

                                   molecule  quantity_name    readout_value
0  CCCCC1(C)CN(c2ccccc2)c2cc(SC)c(CSCC(=O)O)cc2S(=O)(=O)C1 (stereo not drawn)       Papp A→B  29.3 ×10⁻⁶ cm/s
1  CCCCC1(CC)CN(c2ccc(F)cc2)c2cc(SC)c(OCC(=O)O)cc2S(=O)(=O)C1 (stereo not drawn)       Papp A→B   8.7 ×10⁻⁶ cm/s
2  CCCCC1(CCCC)CN(c2ccccc2)c2cc(SC)c(OCCC(=O)O)cc2S(=O)(=O)N1       Papp A→B   9.2 ×10⁻⁶ cm/s
